- Study system: UniProt P0DMS8
- Method: Partial agonist activity at human recombinant adenosine A3 receptor expressed in CHO cells assessed as inhibition of forskolin-stimulated cAMP production at 10 uM incubated for 30 mins prior to forskolin addition by enzyme immunoassay relative to C1-IB-MECA
- Assay type: functional, cell-based
Consider the following molecules; for each one, report its inhibition.
Give bare numbers, in %.

The examples below pair each entry with its known result.
Structure as smiles: CCCCC#Cc1nc(NCc2cccc(Br)c2)c2ncn([C@@H]3OC[C@@H](O)[C@H]3O)c2n1
inhibition / %: 37.2
//
Structure as smiles: CCCCCCc1nc(N)c2ncn([C@@H]3OC[C@@H](O)[C@H]3O)c2n1
inhibition / %: 22.3
//
Structure as smiles: CCCCC#Cc1nc(NCc2cccc(F)c2)c2ncn([C@@H]3SC[C@@H](O)[C@H]3O)c2n1
inhibition / %: 47.6

Now for a further molecule.
**Q:** Value lookup for inhibition; key = CCCC/C=C/c1nc(N)c2ncn([C@@H]3SC[C@@H](O)[C@H]3O)c2n1
**A:** 10.7

----------
Consider the following compounds; for each one, report its Activity.
- Study system: Adenosine receptor A2b (Homo sapiens) (UniProt P29275)
- Sequence (whole entry): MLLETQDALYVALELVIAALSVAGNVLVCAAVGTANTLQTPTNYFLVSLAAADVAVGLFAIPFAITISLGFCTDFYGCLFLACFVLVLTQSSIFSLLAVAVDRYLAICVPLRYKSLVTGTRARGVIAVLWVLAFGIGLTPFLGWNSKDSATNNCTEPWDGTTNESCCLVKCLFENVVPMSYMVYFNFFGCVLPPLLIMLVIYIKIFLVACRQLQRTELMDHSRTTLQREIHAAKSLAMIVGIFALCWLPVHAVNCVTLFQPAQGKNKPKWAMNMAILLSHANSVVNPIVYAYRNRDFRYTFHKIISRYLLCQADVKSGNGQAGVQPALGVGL
- Method: Agonist activity at human recombinant adenosine A2B receptor expressed in CHO cells assessed as induction of cAMP production at 10 uM after 30 mins by immunoassay relative to NECA
- Assay type: functional, cell-based
Write the quantity with the unit trailing the number.

The examples below pair each entry with its known result.
Structure as smiles: CCCC/C=C/c1nc(N)c2ncn([C@@H]3OC[C@@H](O)[C@H]3O)c2n1
Activity: 1.8%

Structure as smiles: CCCCC#Cc1nc(N)c2ncn([C@@H]3OC[C@@H](O)[C@H]3O)c2n1
Activity: 1.9%

Give measured Activity for every item shown.
1. CCCCC#Cc1nc2c(N)ncnc2n1[C@@H]1SC[C@@H](O)[C@H]1O
2. CCCC/C=C/c1nc(N)c2ncn([C@@H]3SC[C@@H](O)[C@H]3O)c2n1

**A:**
7%
3.6%

----------
- Study system: Adenosine receptor A3 (Homo sapiens, UniProt P0DMS8)
- Sequence (P0DMS8 whole entry): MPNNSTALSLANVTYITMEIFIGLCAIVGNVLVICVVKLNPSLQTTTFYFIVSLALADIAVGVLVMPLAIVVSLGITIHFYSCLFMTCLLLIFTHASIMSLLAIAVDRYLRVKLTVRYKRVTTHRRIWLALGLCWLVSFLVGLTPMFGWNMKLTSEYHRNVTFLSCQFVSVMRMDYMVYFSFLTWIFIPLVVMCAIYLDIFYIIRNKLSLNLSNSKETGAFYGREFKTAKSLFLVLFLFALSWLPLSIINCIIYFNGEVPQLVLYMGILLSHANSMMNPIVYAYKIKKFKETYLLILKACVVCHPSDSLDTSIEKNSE
- Method: Displacement of [125I]I-AB-MECA from human adenosine A3 receptor expressed in CHO cells after 60 mins by gamma counting
- Assay type: cell-based
Parameter: Ki (nM)
One number for each entry, in nM.

Give measured Ki for every item shown.
1. CCCCC#Cc1nc(NCc2cccc(Cl)c2)c2ncn([C@@H]3SC[C@@H](O)[C@H]3O)c2n1
2. CCCCC#Cc1nc(NCc2cccc(F)c2)c2ncn([C@@H]3SC[C@@H](O)[C@H]3O)c2n1

**A:**
[24, 150]
